Readings of viability at 28.5 h, 10 µM for the listed molecules
EXPERIMENTAL_DETAILS: in vitro
MEASUREMENT_CONTEXT: human, hela cells, % viability
READOUT: viability at 28.5 h, 10 µM

>>> test_value("O=C(Nc1ncccc1Cl)c1ccc(F)cc1 [CBK288215]")
"93.1%"
>>> test_value("O=C1C2C3C=CC(C3)C2C(=O)N1CCN1CCNCC1 (stereo not shown) [CBK278185C]")
"92.3%"
>>> test_value("Cc1ccc(-c2nccnc2OCCOc2ccccc2)cc1C [CBK106865]")
"90.8%"
>>> test_value("O=S(=O)(NCC1(c2ccccc2)CCCC1)c1cccnc1 [CBK282762]")
"102%"
>>> test_value("Nc1nc(SCC(=O)c2ccc3c(c2)OCCO3)n[nH]1 [CBK266554]")
"107%"
>>> test_value("O=S(=O)(c1ccc(Cl)cc1)N1CCN(S(=O)(=O)N2CCOCC2)CC1 [CBK266878]")
"92.9%"
>>> test_value("COCCN1CC(CNC(=O)c2ccc(N3CCCC3)c(Cl)c2)CC1=O (stereo not shown) [CBK307680]")
"84%"
>>> test_value("O=C(c1cc2ccccc2o1)N1CCN(c2cccc(C(F)(F)F)c2)CC1 [CBK297507]")
"96.8%"
>>> test_value("Cc1c(C(=O)NCC[S+](C)[O-])oc2c(C)cccc12 (stereo not shown) [CBK282511]")
"88.8%"
>>> test_value("O=C(CN1CCN(c2cc(-c3ccc4ccccc4c3)ncn2)CC1)N1CCCC1 [CBK091064]")
"104%"
